The reported measurements were obtained from patent US20250074980A1.

Target: T1, His-tagged CEACAM1 (human, UniProt P13688 35-428)
T1 construct: 45 kDa SPR analyte; also called CEACAM1-HIS; CEACAM1 analyte
T1 sequence: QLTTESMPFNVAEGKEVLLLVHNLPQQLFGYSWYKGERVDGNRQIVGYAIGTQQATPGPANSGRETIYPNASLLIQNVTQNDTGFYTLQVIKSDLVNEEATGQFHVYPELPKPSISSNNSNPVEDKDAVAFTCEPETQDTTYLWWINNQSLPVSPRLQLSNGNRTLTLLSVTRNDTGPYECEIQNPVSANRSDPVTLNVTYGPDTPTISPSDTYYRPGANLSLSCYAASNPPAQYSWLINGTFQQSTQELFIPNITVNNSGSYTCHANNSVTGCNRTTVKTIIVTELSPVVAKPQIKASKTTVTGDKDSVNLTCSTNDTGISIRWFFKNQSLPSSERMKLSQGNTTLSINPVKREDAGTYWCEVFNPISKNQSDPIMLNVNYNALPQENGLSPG
Experiment: SPR single-cycle, supernatant IgG captured
Kd reference
Write the answer as a number in nM, unit excluded.

// solved cases for Kd follow
binder: VH1/CP08G02 (antibody, IgG4, V domains shown, IgG4 (S241P), kappa) VH: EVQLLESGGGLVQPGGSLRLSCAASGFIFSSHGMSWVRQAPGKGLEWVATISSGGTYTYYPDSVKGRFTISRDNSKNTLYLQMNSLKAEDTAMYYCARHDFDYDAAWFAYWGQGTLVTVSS VL: EIVLTQSPATLSLSPGERATLSCRANSAVSYMYWYQQKPGQAPRPWIYLTSNRATGVPARFSGSGSGTDYTLTISSLEPEDFAVYYCQQWTNNPPTFGQGTKLEIK
Kd / nM: 2300

binder: VH1/CP08G09 (antibody, IgG4, V domains shown, IgG4 (S241P), kappa; also called Parent VH/CP08G09) VH: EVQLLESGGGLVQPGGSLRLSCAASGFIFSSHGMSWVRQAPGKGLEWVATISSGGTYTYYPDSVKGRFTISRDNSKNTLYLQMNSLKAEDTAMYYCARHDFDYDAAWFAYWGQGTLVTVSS VL: EIVLTQSPATLSLSPGERATLSCRANSAVSYMYWYQQKPGQAPRPWIYLTSNRATGVPARFSGSGSGTDYTLTISSLEPEDFAVYYCQQWTAFPPTFGQGTKLEIK
Kd / nM: 110

binder: CP09D03/Vκ8 S29A (antibody, IgG4, V domains shown, IgG4 (S241P), kappa) VH: EVQLLESGGGLVQPGGSLRLSCAASGFTFSSHAISWVRQAPGKGLEWVATISSGGTYTYYPDSVKGRFTISRDNSKNTLYLQMNSLKAEDTAMYYCARHDFDYDAAWFAYWGQGTLVTVSS VL: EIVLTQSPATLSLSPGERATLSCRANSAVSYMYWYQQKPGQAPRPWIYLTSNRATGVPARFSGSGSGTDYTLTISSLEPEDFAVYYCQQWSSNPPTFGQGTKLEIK
Kd / nM: 310

binder: CP09E05/Vκ8 S29A (antibody, IgG4, V domains shown, IgG4 (S241P), kappa) VH: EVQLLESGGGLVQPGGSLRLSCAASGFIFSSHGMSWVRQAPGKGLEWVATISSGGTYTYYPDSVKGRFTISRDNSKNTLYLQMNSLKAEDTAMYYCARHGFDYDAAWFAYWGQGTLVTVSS VL: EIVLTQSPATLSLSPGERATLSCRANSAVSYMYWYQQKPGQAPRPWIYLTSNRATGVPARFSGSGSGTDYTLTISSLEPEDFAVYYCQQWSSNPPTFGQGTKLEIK
Kd / nM: 320

binder: CP08A03/Vκ8 S29A (antibody, IgG4, V domains shown, IgG4 (S241P), kappa) VH: EVQLLESGGGLVQPGGSLRLSCAASGFIFNNHAISWVRQAPGKGLEWVATISSGGTYTYYPDSVKGRFTISRDNSKNTLYLQMNSLKAEDTAMYYCARHDFDYDAAWFAYWGQGTLVTVSS VL: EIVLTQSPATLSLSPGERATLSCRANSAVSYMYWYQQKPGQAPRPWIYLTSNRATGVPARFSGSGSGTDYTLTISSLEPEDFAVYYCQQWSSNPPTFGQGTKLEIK
Kd / nM: 430

Turning to the following binder.
Endpoint output: Kd of CP09C02/Vκ8 S29A (antibody, IgG4, V domains shown, IgG4 (S241P), kappa) VH: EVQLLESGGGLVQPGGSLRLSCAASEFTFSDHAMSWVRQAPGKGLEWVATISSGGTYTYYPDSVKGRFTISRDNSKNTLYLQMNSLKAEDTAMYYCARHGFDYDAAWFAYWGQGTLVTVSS VL: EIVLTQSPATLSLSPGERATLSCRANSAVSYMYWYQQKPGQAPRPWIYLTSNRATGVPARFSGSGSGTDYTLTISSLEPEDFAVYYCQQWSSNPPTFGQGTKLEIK . Value?
88
